The reported measurements were obtained from patent US6734190B2.

- test-system: B7-1/CD28 (Homo sapiens, UniProt P33681)
- Sequence (P33681 35-242 limits assumed): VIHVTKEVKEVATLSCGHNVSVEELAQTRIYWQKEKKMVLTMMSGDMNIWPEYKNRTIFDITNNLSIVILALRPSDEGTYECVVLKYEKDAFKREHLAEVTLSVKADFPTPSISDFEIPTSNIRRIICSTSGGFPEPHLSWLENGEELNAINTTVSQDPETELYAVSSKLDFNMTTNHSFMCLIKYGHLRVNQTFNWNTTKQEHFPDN
- procedure-details: CD28/B7-1 ELISA (B7-1/CD28 binding inhibition)
- details: CD28-Fc coated wells; B7-1-Fc-biotin/streptavidin-alkaline phosphatase detection complex; 1% DMSO
Please provide measured IC50 for the entries that follow.
Give the number; nM is assumed, so skip it.

Incoming: Which IC50 reading was recorded for the compound COC(=O)c1cccc(NC(=O)c2ccc(-n3[nH]c4c(c(-c5cccc(C(F)(F)F)c5)nc5c4cnn5C)c3=O)cc2)c1 [Example 42] ?
Outgoing: 94

Incoming: Which IC50 reading was recorded for the compound COC(=O)c1cn(C(=O)c2cccc(-n3[nH]c4c(c(-c5cccc(C(F)(F)F)c5)nc5c4cnn5C)c3=O)c2)c2ccccc12 [Example 15] ?
Outgoing: 63

Incoming: Which IC50 reading was recorded for the compound CN(CCO)C(=O)c1cccc(-n2[nH]c3c(c(-c4cccc(C(F)(F)F)c4)nc4c3cnn4C)c2=O)c1 [Example 14] ?
Outgoing: 61
